- assay target: UniProt:O42713
- Sequence (O42713 whole entry): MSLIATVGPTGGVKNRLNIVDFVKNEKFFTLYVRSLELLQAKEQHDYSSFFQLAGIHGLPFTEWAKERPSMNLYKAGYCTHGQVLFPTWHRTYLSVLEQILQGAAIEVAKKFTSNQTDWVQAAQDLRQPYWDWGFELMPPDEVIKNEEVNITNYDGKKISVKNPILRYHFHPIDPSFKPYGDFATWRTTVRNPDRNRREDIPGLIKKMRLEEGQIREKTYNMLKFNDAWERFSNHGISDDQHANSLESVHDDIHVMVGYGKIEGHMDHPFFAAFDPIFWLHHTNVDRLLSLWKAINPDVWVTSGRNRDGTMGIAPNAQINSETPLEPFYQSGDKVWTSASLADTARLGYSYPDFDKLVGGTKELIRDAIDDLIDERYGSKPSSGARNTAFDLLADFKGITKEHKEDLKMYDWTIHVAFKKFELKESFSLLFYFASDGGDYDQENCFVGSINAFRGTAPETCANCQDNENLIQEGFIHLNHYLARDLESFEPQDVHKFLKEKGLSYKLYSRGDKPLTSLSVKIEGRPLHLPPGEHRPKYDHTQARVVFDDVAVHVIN
- procedure text: Inhibition of mushroom tyrosinase using L-DOPA as substrate incubated for 20 mins by microplate reader assay
Listed here: items and their measured IC50.
result type: IC50 (µM)

1) Nc1ccccc1C1=NNC(c2ccncc2)C1 (centres undefined) | 420
2) Nc1ccccc1C1=NNC(c2ccccn2)C1 (centres undefined) | 420
3) COc1c(N2C[C@@H]3CCCN[C@@H]3C2)c(F)cc2c(=O)c(C(=O)O)cn(C3CC3)c12 [MOXIFLOXACIN] | 2.99
4) F[B-]1(F)Nc2ccccc2C2=[N+]1NC(c1ccccn1)C2 (centres undefined) | 350
5) CCn1cc(C(=O)O)c(=O)c2cc(F)c(N3CCNCC3)cc21 [NORFLOXACIN] | 2.19
6) F[B-]1(F)Nc2ccccc2C2=[N+]1NC(c1cccnc1)C2 (centres undefined) | 350
7) Nc1ccccc1C1=NNC(c2cccnc2)C1 (centres undefined) | 420

The reported numbers originate from ChEMBL document CHEMBL5233214.
